Ref: paper PMC8228192

Record form. Attribute: koff,minor (minor fast phase of biphasic dissociation). Fill in for each entry.
Target: T1, ARM repeat domain of human β-catenin (residues 134–671) (human, UniProt P35222 134-671)
T1 construct: β-catenin, human, ARM repeat domain, residues 134–671; Plasmid was a gift from W.I. Weis; source: E. coli C41, purified (glutathione-Sepharose 4B, thrombin cleavage on resin, Mono-Q)
T1 sequence (looked up): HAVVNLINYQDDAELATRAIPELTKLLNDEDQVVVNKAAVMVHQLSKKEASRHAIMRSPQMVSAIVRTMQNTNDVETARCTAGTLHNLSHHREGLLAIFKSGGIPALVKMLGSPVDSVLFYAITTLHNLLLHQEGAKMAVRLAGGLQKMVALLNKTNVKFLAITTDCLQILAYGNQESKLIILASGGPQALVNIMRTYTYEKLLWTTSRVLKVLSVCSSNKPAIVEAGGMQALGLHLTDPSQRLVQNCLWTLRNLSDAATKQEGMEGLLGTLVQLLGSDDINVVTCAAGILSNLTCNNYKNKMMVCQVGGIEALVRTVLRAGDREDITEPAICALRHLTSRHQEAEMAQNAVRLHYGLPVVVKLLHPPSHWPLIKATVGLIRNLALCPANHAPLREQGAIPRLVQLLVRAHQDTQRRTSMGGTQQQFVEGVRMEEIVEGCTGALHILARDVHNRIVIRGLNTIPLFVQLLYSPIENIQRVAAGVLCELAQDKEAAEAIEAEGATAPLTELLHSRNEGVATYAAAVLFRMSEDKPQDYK
Test: fluorescence spectroscopy kinetics (dissociation, fluorimeter); pre-formed 1:1 complex of labelled TCF7L2 and β-catenin mixed 1:1 with 50-times molar excess of unlabelled TCF7L2; PBS, 1 mM DTT, 15 °C; fitted to sums of exponential phases
Experimental Conditions: both partners purified
No end group written: not given here.
One number for each entry, in s⁻¹.

TCF7L2 (1–54) S31C D23A, fluorescein-labelled (domain or fragment, UniProt Q9NQB0 1-54, looked up, One extra serine is left behind after thrombin cleavage of the tag; source: E. coli C41, purified (Ni-NTA, thrombin cleavage, Superdex 75), labelled with fluorescein maleimide) MPQLNGGGGDDLGANDELISFKAEGEQEEKC(fluorescein maleimide)SENSSAERDLADVKSSLVNESET	0.00239
TCF7L2 (1–54) S31C E38A, fluorescein-labelled (domain or fragment, UniProt Q9NQB0 1-54, looked up, One extra serine is left behind after thrombin cleavage of the tag; source: E. coli C41, purified (Ni-NTA, thrombin cleavage, Superdex 75), labelled with fluorescein maleimide) MPQLNGGGGDDLGANDELISFKDEGEQEEKC(fluorescein maleimide)SENSSAARDLADVKSSLVNESET	0.00261

Note: attention shifts to another entry.
-- ask Quick check: koff,minor (minor fast phase of biphasic dissociation) of TCF7L2 (1–54) S31C E28A, fluorescein-labelled (domain or fragment, UniProt Q9NQB0 1-54, looked up, One extra serine is left behind after thrombin cleavage of the tag; source: E. coli C41, purified (Ni-NTA, thrombin cleavage, Superdex 75), labelled with fluorescein maleimide) MPQLNGGGGDDLGANDELISFKDEGEQAEKC(fluorescein maleimide)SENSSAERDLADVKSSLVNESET ?
-- reply 0.00116
